Experiment Notes: UWB1.289_BRCA1 ovarian cancer growth, cell-based, BGB or cisplatin combinations (AID 1671459)
Setup Conditions: UWB1.289 BRCA1 ovarian carcinoma, drug combinations, at 0.5 µM, stronger effect = higher value
Result Type: inhibition (%)
Give your result in % as a bare value.

{"Mol": "CC(=O)OCC(CCn1cnc2cnc(N)nc21)COC(C)=O", "Unit Of Measurement": "%", "Reported": -3.29}
{"Mol": "O=C(O)CCCc1ccccc1", "Unit Of Measurement": "%", "Reported": -1.28}
{"Mol": "O=c1[nH]cc(F)c(=O)[nH]1", "Unit Of Measurement": "%", "Reported": -7.71}

# evaluate next
**Query** For the compound CCn1cc(C(=O)O)c(=O)c2cc(F)c(N3CCNCC3)cc21 , report inhibition.
**Result** 2.01
